Attribution: patent US11987648B2

Quick reference for SST5/2 Selectivity among some molecules
biological target: SST5 (Homo sapiens, UniProt P35346); experiment: Hit Hunter cAMP XS+ assay, SST5 activation via Gi (reduction of forskolin-stimulated cAMP); type: cell-based; settings: selectivity for SST5 over SST2
Sequence (P35346 whole entry): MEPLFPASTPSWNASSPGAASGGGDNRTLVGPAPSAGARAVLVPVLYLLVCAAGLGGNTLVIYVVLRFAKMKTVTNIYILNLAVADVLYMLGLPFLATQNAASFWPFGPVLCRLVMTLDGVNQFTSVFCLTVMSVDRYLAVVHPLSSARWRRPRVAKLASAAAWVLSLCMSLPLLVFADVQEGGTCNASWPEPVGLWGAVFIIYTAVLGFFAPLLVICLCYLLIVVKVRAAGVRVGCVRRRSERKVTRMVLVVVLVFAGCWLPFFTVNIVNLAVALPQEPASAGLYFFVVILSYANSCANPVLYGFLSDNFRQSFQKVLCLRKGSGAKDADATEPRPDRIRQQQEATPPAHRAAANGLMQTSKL
*1 amine or outer side, *2 acyl side, *3 side chain or, on linkers, in order; H or OH if unused. Where a SMILES comes first, the peptide text is derived from it. Side-chain parts run from the residue outwards. [ ]: non-standard residue; d: D form. The star is where a group is joined. Ala(piperidin-4-yl) = O=C([C@H](CC1CCN([*:3])CC1)N[*:1])[*:2]; Ala(piperazin-1-yl) = N[C@@H](CN1CCNCC1)C(=O)O; Ethylenediamine = C(CN[*:2])N[*:1]; Hyp = O=C(O)[C@@H]1C[C@@H](O)CN1; hPhe = N[C@@H](CCc1ccccc1)C(=O)O; 3Pal = N[C@@H](Cc1cccnc1)C(=O)O; Tic = O=C(O)[C@@H]1Cc2ccccc2CN1; Benzyl(4-Cl) = Clc1ccc(C*)cc1; CO = O=C([*:1])[*:2]; Bn = c1ccc(C*)cc1
Give only the figure.

Solved cases below.
Molecule: NCCNC(=O)O[C@@H]1C[C@H]2C(=O)N[C@@H](CCc3ccccc3)C(=O)N[C@H](Cc3c[nH]c4ccccc34)C(=O)N[C@@H](CN3CCNCC3)C(=O)N[C@@H](Cc3ccc(OCc4ccccc4)cc3)C(=O)N3Cc4ccccc4C[C@H]3C(=O)N2C1 [Example 26] (cyclo([Hyp]([CO-Ethylenediamine])[hPhe][dW][Ala(piperazin-1-yl)]Y(Bn)[Tic]))
Target of assay: SST5 (Homo sapiens, UniProt P35346)
Outcome measure: SST5/2 Selectivity
Recorded result: 4067.3
--
Molecule: NCCNC(=O)O[C@@H]1C[C@H]2C(=O)N[C@@H](CCc3ccccc3)C(=O)N[C@H](Cc3c[nH]c4ccccc34)C(=O)N[C@@H](CC3CCNCC3)C(=O)N[C@@H](Cc3ccc(OCc4ccc(Cl)cc4)cc3)C(=O)N[C@@H](Cc3cccnc3)C(=O)N2C1 [Example 40] (cyclo([3Pal][Hyp]([CO-Ethylenediamine])[hPhe][dW][Ala(piperidin-4-yl)]Y(Benzyl(4-Cl))))
Target of assay: SST5 (Homo sapiens, UniProt P35346)
Outcome measure: SST5/2 Selectivity
Recorded result: 126.6

Q: Fill in the blank: the reported SST5/2 Selectivity of NCCNC(=O)O[C@@H]1C[C@H]2C(=O)N[C@@H](CCc3ccccc3)C(=O)N[C@@H](Cc3c[nH]c4ccccc34)C(=O)N[C@@H](CC3CCNCC3)C(=O)N[C@@H](Cc3ccc(OCc4ccccc4)cc3)C(=O)N3Cc4ccccc4C[C@H]3C(=O)N2C1 [Example 19] (cyclo([Hyp]([CO-Ethylenediamine])[hPhe]W[Ala(piperidin-4-yl)]Y(Bn)[Tic])) is ____.
Result: 5.5

----------
Quick reference for EC50 among some compounds
target: SST5 (Homo sapiens, UniProt P35346); experiment: Hit Hunter cAMP XS+ assay, SST5 activation via Gi (reduction of forskolin-stimulated cAMP); assay type: cell-based; settings: reduction of forskolin-stimulated cAMP; 4-parameter logistic fit; read-out: SST5 pEC50 (converted)
*1 amine or outer side, *2 acyl side, *3 side chain or, on linkers, in order; H or OH if unused. Where a SMILES comes first, the peptide text is derived from it. Side-chain parts run from the residue outwards. [ ]: non-standard residue; d: D form. The star is where a group is joined. Ala(piperidin-4-yl) = O=C([C@H](CC1CCN([*:3])CC1)N[*:1])[*:2]; X8 = COc1cc2c(cc1OC)CN([*:1])[C@H](C(=O)[*:2])C2; Phe(4-Cl) = N[C@@H](Cc1ccc(Cl)cc1)C(=O)O; Ethylenediamine = C(CN[*:2])N[*:1]; Hyp = O=C(O)[C@@H]1C[C@@H](O)CN1; hPhe = N[C@@H](CCc1ccccc1)C(=O)O; Phg = N[C@H](C(=O)O)c1ccccc1; CO = O=C([*:1])[*:2]; Bn = c1ccc(C*)cc1
The figure you give is taken to be in nM; do not add the unit.

Compound: NCCNC(=O)O[C@@H]1C[C@H]2C(=O)N[C@@H](c3ccccc3)C(=O)N[C@H](Cc3c[nH]c4ccccc34)C(=O)N[C@@H](CC3CCNCC3)C(=O)N[C@@H](Cc3ccc(OCc4ccccc4)cc3)C(=O)N[C@@H](Cc3ccc(Cl)cc3)C(=O)N2C1 [Example 8] (cyclo([Hyp]([CO-Ethylenediamine])[Phg][dW][Ala(piperidin-4-yl)]Y(Bn)[Phe(4-Cl)]))
EC50 (nM): 1.26

We now examine a further compound.
Q: Fill in the blank: the reported EC50 of COc1cc2c(cc1OC)CN1C(=O)[C@H](Cc3ccc(OCc4ccccc4)cc3)NC(=O)[C@H](CC3CCNCC3)NC(=O)[C@@H](Cc3c[nH]c4ccccc34)NC(=O)[C@H](CCc3ccccc3)NC(=O)[C@@H]3C[C@@H](OC(=O)NCCN)CN3C(=O)[C@@H]1C2 [Example 66] (cyclo([Hyp]([CO-Ethylenediamine])[hPhe][dW][Ala(piperidin-4-yl)]Y(Bn)[X8])) is ____.
Result: 1.26
